Read-out: E-selectin (Homo sapiens)
ASSAY_EXPLANATION: BSK_3C_Eselectin: BioMAP Diversity Plus: 3C Assay for Eselectin Biomarker Activity (AID 2283015)
MEASUREMENT_CONTEXT: primary human endothelial cells (HUVEC); actives raise or lower the signal
The source made the active and inactive calls. The calls were made as follows: active = hit-call score of the fitted dose curve at least 0.9, where 1 is the maximum; inactive = score below 0.9.

COMPOUND	AC50
CCCCN(CC)c1c([N+](=O)[O-])cc(C(F)(F)F)cc1[N+](=O)[O-]	inactive
FC(F)C(F)(F)OCC(Cn1cncn1)c1ccc(Cl)cc1Cl (stereo unspecified)	inactive
CCCSP(=O)(OCC)Oc1ccc(Br)cc1Cl (stereo unspecified)	inactive
CC(C1CC1)C(O)(Cn1cncn1)c1ccc(Cl)cc1 (stereo unspecified)	inactive
CCOP(=O)(NC(C)C)Oc1ccc(SC)c(C)c1 (stereo unspecified)	inactive
CON=C(C(=O)OC)c1ccccc1CON=C(C)c1cccc(C(F)(F)F)c1	2.35 µM (active)
Cc1nn(-c2cc(NS(C)(=O)=O)c(Cl)cc2Cl)c(=O)n1C(F)F	inactive
S=C1NCCN1	inactive
C=C(C)[C@H]1Cc2c(ccc3c2O[C@@H]2COc4cc(OC)c(OC)cc4[C@@H]2C3=O)O1	20 µM (active)
COc1ccc(C(=CC(=O)N2CCOCC2)c2ccc(Cl)cc2)cc1OC	10.2 µM (active)
CSC1=N[C@@](C)(c2ccccc2)C(=O)N1Nc1ccccc1	6.26 µM (active)

----------
ASSAY_EXPLANATION: APR_HepG2_StressKinase_72hr: Apredica 72-hour HepG2 Assay for Stress Kinase (AID 2282921)
MEASUREMENT_CONTEXT: HepG2 stress kinase (phospho-c-Jun) imaging, actives raise or lower the signal
Active and inactive are the calls of the source. How the source made its calls: active means hit-call score of the fitted dose curve at least 0.9, where 1 is the maximum; inactive means score below 0.9.
Outcome codes: active, inactive

COMPOUND	ASSIGNED_CATEGORY
CCNc1nc(Cl)nc(NC(C)(C)C#N)n1	inactive
CN(C)[C@@H]1C(=O)C(C(N)=O)=C(O)[C@@]2(O)C(=O)C3=C(O)c4c(O)cccc4[C@@](C)(O)[C@H]3[C@H](O)[C@@H]12	inactive
C[Si](Cn1cncn1)(c1ccc(F)cc1)c1ccc(F)cc1	inactive
C#CC(C)(C)NC(=O)c1cc(Cl)cc(Cl)c1	inactive
COP(=O)(OC)C(O)C(Cl)(Cl)Cl (stereo not given)	inactive
CNC(=O)ON=C(SC)C(=O)N(C)C	inactive
CCOP(=S)(OCC)Oc1cc(C)nc(C(C)C)n1	inactive
COP(=O)(OC)SCn1c(=O)oc2cc(Cl)cnc21	active
CNc1cnn(-c2cccc(C(F)(F)F)c2)c(=O)c1Cl	inactive
CCOP(=O)(SC(C)CC)N1CCSC1=O (stereo not given)	inactive
O=[N+]([O-])c1cc(C(F)(F)F)c(Cl)c([N+](=O)[O-])c1Nc1ncc(C(F)(F)F)cc1Cl	inactive
FC(F)C(F)(F)OCC(Cn1cncn1)c1ccc(Cl)cc1Cl (stereo not given)	inactive
CN(C)C(=O)Nc1cccc(C(F)(F)F)c1	inactive
CON=C(C(=O)OC)c1ccccc1CON=C(C)c1cccc(C(F)(F)F)c1	inactive
CC(Oc1cccc(Cl)c1)C(=O)O (stereo not given)	inactive
S=C1NCCN1	inactive
CC(C1CC1)C(O)(Cn1cncn1)c1ccc(Cl)cc1 (stereo not given)	inactive
CCCCOC(=O)c1ccccc1C(=O)O	inactive
CCOP(=S)(OCC)Oc1ccc2c(C)c(Cl)c(=O)oc2c1	inactive
C=C(C)[C@H]1Cc2c(ccc3c2O[C@@H]2COc4cc(OC)c(OC)cc4[C@@H]2C3=O)O1	active
CCCCSP(=O)(SCCCC)SCCCC	inactive
CC(=NC#N)N(C)Cc1ccc(Cl)nc1	inactive
CC1=NNC(=O)N(/N=C/c2cccnc2)C1	inactive
CCCOCC(=Nc1ccc(Cl)cc1C(F)(F)F)n1ccnc1	inactive
Cc1nn(-c2cc(NS(C)(=O)=O)c(Cl)cc2Cl)c(=O)n1C(F)F	inactive
CC(C)=CC1C(C(=O)OCN2C(=O)C3=C(CCCC3)C2=O)C1(C)C (stereo not given)	inactive
CSC1=N[C@@](C)(c2ccccc2)C(=O)N1Nc1ccccc1	inactive
COc1cccc(C(=O)NN(C(=O)c2cc(C)cc(C)c2)C(C)(C)C)c1C	inactive
CCOP(=S)(Oc1cnc(C(C)(C)C)nc1)OC(C)C (stereo not given)	inactive
CN1COCN(Cc2cnc(Cl)s2)C1=N[N+](=O)[O-]	inactive
CCc1cccc(CC)c1N(COC)C(=O)CCl	inactive
COc1ccc(C(=CC(=O)N2CCOCC2)c2ccc(Cl)cc2)cc1OC	inactive
CNC(=O)ON=C(C)SC	inactive
CCOP(=S)(OCC)Oc1ccc([N+](=O)[O-])cc1	inactive
CC1(C(=O)Nc2ccc(O)c(Cl)c2Cl)CCCCC1	inactive
CCOP(=O)(NC(C)C)Oc1ccc(SC)c(C)c1 (stereo not given)	inactive
O=C(O)c1cc(Oc2ccc(C(F)(F)F)cc2Cl)ccc1[N+](=O)[O-]	inactive
COP(=O)(OC)OC(Br)C(Cl)(Cl)Br (stereo not given)	inactive
CCc1cccc(C)c1N(C(=O)CCl)C(C)COC (stereo not given)	inactive
N#CSCSC#N	inactive
CC[C@H](C)[C@H]1O[C@]2(C=C[C@@H]1C)C[C@@H]1C[C@@H](C/C=C(\C)[C@@H](O[C@H]3C[C@H](OC)[C@@H](O[C@H]4C[C@H](OC)[C@@H](NC)[C@H](C)O4)[C@H](C)O3)[C@@H](C)/C=C/C=C3\CO[C@@H]4[C@H](O)C(C)=C[C@@H](C(=O)O1)[C@]34O)O2	inactive
CC(C)N(C(=O)SCC(Cl)=C(Cl)Cl)C(C)C	inactive
CCCSP(=O)(OCC)Oc1ccc(Br)cc1Cl (stereo not given)	inactive
C#CCC1=C(C)C(OC(=O)C2C(C=C(C)C)C2(C)C)CC1=O (stereo not given)	inactive
CSc1nc(NC(C)C)nc(NC(C)C)n1	inactive

----------
Read-out: alkyl and aryl transferase (GSTA2), GSTA2 (gene 2939)
ASSAY_EXPLANATION: CLD_GSTA2_48hr: CellzDirect (CLD) Gene Expression Assay for alkyl and aryl transferase (GSTA2) at 48 hours (AID 2283708);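 also: active means mRNA induction above DMSO vehicle baseline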
Procedure: CLD_48hr is a cell-based, multiplexed-readout assay that uses hepatocyte, a human liver primary cell, with measurements taken at 48 hours after chemical dosing in a 96-well plate.CLD_GSTA2_48hr is one of 16 assay component(s) measured or calculated from the CLD_48hr assay. […] Furthermore, this assay endpoint can be referred to as a primary readout. […]
Results filed as inconclusive are left out. Active and inactive are the calls of the source. How the source made its calls: active means hit-call score of the fitted dose curve at least 0.9, where 1 is the maximum; inconclusive means response in the unintended direction; inactive means score below 0.9.
Outcomes: true (1) for active, false (0) for inactive

COMPOUND	ASSIGNED_CATEGORY
C=C(C)[C@H]1Cc2c(ccc3c2O[C@@H]2COc4cc(OC)c(OC)cc4[C@@H]2C3=O)O1	true (1)
COc1ccc(C(=CC(=O)N2CCOCC2)c2ccc(Cl)cc2)cc1OC	true (1)
CC(C)N(C(=O)SCC(Cl)=C(Cl)Cl)C(C)C	false (0)
CC(C1CC1)C(O)(Cn1cncn1)c1ccc(Cl)cc1 (configuration not stated)	false (0)
COP(=O)(OC)C(O)C(Cl)(Cl)Cl (configuration not stated)	false (0)
CNC(=O)Oc1cccc2c1OC(C)(C)O2	false (0)
CN1COCN(Cc2cnc(Cl)s2)C1=N[N+](=O)[O-]	false (0)
CC(=NC#N)N(C)Cc1ccc(Cl)nc1	false (0)
CCOP(=O)(SC(C)CC)N1CCSC1=O (configuration not stated)	false (0)
CCC(CC)Nc1c([N+](=O)[O-])cc(C)c(C)c1[N+](=O)[O-]	false (0)
CCOP(=O)(OCC)Oc1cc(C)nc(C(C)C)n1	false (0)
C#CCC1=C(C)C(OC(=O)C2C(C=C(C)C)C2(C)C)CC1=O (configuration not stated)	false (0)

----------
Read-out: CD69, CD69 (gene 969)
ASSAY_EXPLANATION: BSK_SAg_CD69: BioMAP Diversity Plus: SAg Assay for CD69 Biomarker Activity (AID 2283089)
MEASUREMENT_CONTEXT: primary human HUVEC with PBMC; actives raise or lower the signal
Activity calls are given as the source filed them. How the source made its calls: active means hit-call score of the fitted dose curve at least 0.9, where 1 is the maximum; inactive means score below 0.9.
Classes used: active, inactive

COMPOUND	ASSIGNED_CATEGORY
C[N+]1(C)CCCCC1	inactive
Nc1nc(N)nc(NC2CC2)n1	inactive
CC(C)N(C(=O)SCC(Cl)=C(Cl)Cl)C(C)C	active
CCC(CC)Nc1c([N+](=O)[O-])cc(C)c(C)c1[N+](=O)[O-]	active
CSc1nnc(C(C)(C)C)c(=O)n1N	inactive
CSc1nc(NC(C)C)nc(NC(C)C)n1	inactive
Cc1nn(-c2cc(NS(C)(=O)=O)c(Cl)cc2Cl)c(=O)n1C(F)F	inactive
CCCCOC(=O)[C@@H](C)Oc1ccc(Oc2ccc(C#N)cc2F)cc1	inactive
CSC1=N[C@@](C)(c2ccccc2)C(=O)N1Nc1ccccc1	active
O=C(O)c1cc(Oc2ccc(C(F)(F)F)cc2Cl)ccc1[N+](=O)[O-]	inactive
CC(COc1ccc(Oc2ccccc2)cc1)Oc1ccccn1 (centres undefined)	inactive
CC[C@H](C)[C@H]1O[C@]2(C=C[C@@H]1C)C[C@@H]1C[C@@H](C/C=C(\C)[C@@H](O[C@H]3C[C@H](OC)[C@@H](O[C@H]4C[C@H](OC)[C@@H](NC)[C@H](C)O4)[C@H](C)O3)[C@@H](C)/C=C/C=C3\CO[C@@H]4[C@H](O)C(C)=C[C@@H](C(=O)O1)[C@]34O)O2	active
N#CSCSC#N	active
CC(=NC#N)N(C)Cc1ccc(Cl)nc1	inactive
CNC(=O)ON=C(C)SC	inactive
CN(C)NC(=O)CCC(=O)O	inactive
O=c1ccc(=O)[nH][nH]1	inactive
C[Si](Cn1cncn1)(c1ccc(F)cc1)c1ccc(F)cc1	inactive
S=C1NCCN1	inactive
